- assay_name: physchem
- Assay type: physicochemical
- measurement_conditions: 25 °C, organic solvent or mixture, thermodynamic from solid, DMI; shaken at 25° C. for 24 h
- Procedure: About 3 g of each solvent was weighed according to Table 3, and an excess amount of capsaicin was added. The mixture was placed into a constant-temperature oscillator for oscillation for 24 h (25° C., 200 rpm), and then centrifuged at 10000 rpm for 30 min. The supernatant was taken to measure the capsaicin content. The solubility of CAP in different solvents (different pH buffers, commonly used oil phases, and water-soluble organic solvents) was measured, with the results shown in Table 3: […]
recorded_endpoint: solubility at 24 h

Output measured solubility at 24 h for this item: COc1cc(CNC(=O)CCCC/C=C/C(C)C)ccc1O [CAP, capsaicin] > 500 mg/mL

---

- assay_name: physchem
- Format: physicochemical
- measurement_conditions: 25 °C, pH 1, simulated gastric fluid, thermodynamic from solid, pH 1.0 hydrochloric acid medium; shaken at 25° C. for 24 h
recorded_endpoint: solubility at 24 h (µg/mL)
Give the value in µg/mL but do not write µg/mL after it.

Output measured solubility at 24 h for this item: COc1cc(CNC(=O)CCCC/C=C/C(C)C)ccc1O [CAP, capsaicin] 45

---

- assay_name: physchem
- Format: physicochemical
- measurement_conditions: 25 °C, organic solvent or mixture, thermodynamic from solid, Isopropanol; shaken at 25° C. for 24 h
recorded_endpoint: solubility at 24 h

Output measured solubility at 24 h for this item: COc1cc(CNC(=O)CCCC/C=C/C(C)C)ccc1O > 500 mg/mL

---

- assay_name: physchem
- Type: physicochemical
- measurement_conditions: 25 °C, oil or lipid, thermodynamic from solid, GDO; shaken at 25° C. for 24 h
recorded_endpoint: solubility at 24 h
Express your answer as a number followed by its unit.

Output measured solubility at 24 h for this item: COc1cc(CNC(=O)CCCC/C=C/C(C)C)ccc1O 45 mg/mL

---

- assay_name: physchem
- Format: physicochemical
- measurement_conditions: 25 °C, organic solvent or mixture, thermodynamic from solid, Propylene glycol; shaken at 25° C. for 24 h
recorded_endpoint: solubility at 24 h (mg/mL)
Give the value in mg/mL but do not write mg/mL after it.

Output measured solubility at 24 h for this item: COc1cc(CNC(=O)CCCC/C=C/C(C)C)ccc1O 290

---

- assay_name: physchem
- Assay type: physicochemical
- measurement_conditions: 25 °C, pH 8, aqueous buffer, thermodynamic from solid, pH 8.0 phosphate medium; shaken at 25° C. for 24 h
recorded_endpoint: solubility at 24 h (µg/mL)
Give the value in µg/mL but do not write µg/mL after it.

Output measured solubility at 24 h for this item: COc1cc(CNC(=O)CCCC/C=C/C(C)C)ccc1O 42

---

- assay_name: physchem
- Type: physicochemical
- measurement_conditions: 25 °C, organic solvent or mixture, thermodynamic from solid, in some water-soluble organic solvents
- Experimental: About 3 g of each solvent was weighed according to Table 3, and an excess amount of capsaicin was added. The mixture was placed into a constant-temperature oscillator for oscillation for 24 h (25° C., 200 rpm), and then centrifuged at 10000 rpm for 30 min. The supernatant was taken to measure the capsaicin content. The solubility of CAP in different solvents (different pH buffers, commonly used oil phases, and water-soluble organic solvents) was measured, with the results shown in Table 3: […]
recorded_endpoint: solubility at 24 h

Output measured solubility at 24 h for this item: COc1cc(CNC(=O)CCCC/C=C/C(C)C)ccc1O [CAP, capsaicin] > 250 mg/mL

---

- assay_name: physchem
- Format: physicochemical
- measurement_conditions: 25 °C, pH 7, aqueous buffer, thermodynamic from solid, pH 7.0 phosphate medium; shaken at 25° C. for 24 h
recorded_endpoint: solubility at 24 h
Express your answer as a number followed by its unit.

Output measured solubility at 24 h for this item: COc1cc(CNC(=O)CCCC/C=C/C(C)C)ccc1O 45 µg/mL

---

- assay_name: physchem
- Format: physicochemical
- measurement_conditions: 25 °C, pH 10, aqueous buffer, thermodynamic from solid, pH 10.0 carbonate medium; shaken at 25° C. for 24 h
recorded_endpoint: solubility at 24 h (µg/mL)
Give the value in µg/mL but do not write µg/mL after it.

Output measured solubility at 24 h for this item: COc1cc(CNC(=O)CCCC/C=C/C(C)C)ccc1O 102

---

- assay_name: physchem
- Type: physicochemical
- measurement_conditions: 25 °C, pH 3, aqueous buffer, thermodynamic from solid, pH 3.0 phosphate medium; shaken at 25° C. for 24 h
recorded_endpoint: solubility at 24 h (µg/mL)
Give the value in µg/mL but do not write µg/mL after it.

Output measured solubility at 24 h for this item: COc1cc(CNC(=O)CCCC/C=C/C(C)C)ccc1O [CAP, capsaicin] 44

---

- assay_name: physchem
- Assay type: physicochemical
- measurement_conditions: 25 °C, oil or lipid, thermodynamic from solid, MCT; shaken at 25° C. for 24 h
recorded_endpoint: solubility at 24 h (mg/mL)
Give the value in mg/mL but do not write mg/mL after it.

Output measured solubility at 24 h for this item: COc1cc(CNC(=O)CCCC/C=C/C(C)C)ccc1O 14
